Reported TGI is given for each of the following molecules.
tested on: UO-31 renal; experiment: NCI tumour cell line growth inhibition, 48 h
measured.attribute: TGI (µM)

>>> df
                                   molecule  assayed_system  unit_symbol  readout_relation  measured_number
0  CCOc1cc2c(cc1O)C=C[C@@H]1[C@@H]2CC[C@]2(C)[C@@H](O)CC[C@@H]12     UO-31 renal           µM                 >             86.1
1  O=C1C=CC(=O)c2c(O)c(NCCN3CCOCC3)c(Cl)c(O)c21     UO-31 renal           µM                 =             3.96
2    O=C(NC1CCCCC1)NC12CC3CC(CC(F)(C3)C1)C2     UO-31 renal           µM                 >              100
3  CCc1cc2c(cc1C(=O)CCC(=O)O)CC1(C2)Cc2cc(CC)c(C(=O)CCC(=O)O)cc2C1     UO-31 renal           µM                 >              100
4  Cn1cnc(SC2=CC(=O)C=C3S[C@H]4C[C@@]23c2c(c(O)c3c5c2=NCCC=5C=N3)N4)c1CC(N)C(=O)O (stereo not given in full)     UO-31 renal           µM                 =             30.3
